Could you please report measured growth inhibition for the items listed next?
# experiment.notes: NCI Yeast Anticancer Drug Screen. Data for the cln2 rad14 strain (AID 165);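 note: 0% = growth equal to vehicle treated cultures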
# measurement.context: S. cerevisiae cln2 rad14 strain, at 50.0 µM, stronger effect = higher value
Compounds without any hit were thinned out: in the full panel of roughly 79,000, 15% have a hit.
Give bare numbers, in %.

These solved cases illustrate the format of a correct answer.
molecule	unit.descriptor	growth inhibition
CCCCN(C)CC(C)O (configuration not stated)	%	-24.3
COc1ccc(NC(=O)CCc2cc(-c3ccc(O)c(OC)c3)nc(NC#N)n2)cc1	%	6
Cc1ccc2c(c1)-c1c3c(nn1C)-c1ccccc1SC3O2 (configuration not stated)	%	-3.6
Cc1nc(N)nc(CCC(=O)Nc2cccc(C(F)(F)F)c2)c1-c1ccc(Cl)cc1	%	7.45
COC(=O)/C(C#N)=C(/NCc1ccccc1)Nc1ccccc1	%	11.4

Quick one: give me growth inhibition for each item below, same order please.
1. Cc1ccc(S(=O)(=O)OC2C3OC(C)(C)OC3OC2C2CSC(=S=O)S2)cc1 (configuration not stated)
2. COc1ccccc1C(=O)Nc1c(C)cccc1Cl
3. C/C=C/Sc1ccccc1C(=O)O
4. O=c1[nH]nc(S(=O)(=O)N2CCCC2)c(=O)[nH]1

stdout:
1. 22.2
2. 0.4
3. -18.9
4. -2.85

---

# experiment.notes: NCI Yeast Anticancer Drug Screen. Data for the mlh1 rad18 strain (AID 175)
# measurement.context: S. cerevisiae mlh1 rad18 strain growth inhibition; at 50.0 µM; stronger effect = higher value
Compounds without any hit were thinned out: in the full panel of roughly 79,000, 15% have a hit.
Task for the reader: assign each of the following compounds its reported growth inhibition.
One number for each entry, in %.

Below, each entry is followed by its recorded growth inhibition result.
compound	unit.descriptor	growth inhibition
Cc1nn(C(N)=S)c(C)c1N=Nc1ccc(O)cc1	%	15.9
O=c1[nH]c2ccccc2nc1/C=C/NC(=S)Nc1ccccc1	%	-2.2
O=CC1(CCc2ccccc2)NC(=O)NC1=O (stereo unspecified)	%	1.25
O=c1[nH][nH]c(=O)c2nc3c(nc12)c1nc2c(=O)[nH][nH]c(=O)c2nc1c1nc2c(=O)[nH][nH]c(=O)c2nc31	%	8.2

Dear reader, for each entry below, please note its growth inhibition.
1. C=CCOCn1ccc(NC(=O)c2ccccc2)nc1=O
2. O=C1CC(c2ccccc2)Oc2cc(O)cc(O)c21 (stereo unspecified)
3. O=c1cc(C(O)C(O)C(O)C(O)CO)[nH]c(=O)[nH]1 (stereo unspecified)

stdout:
1: -22.3; 2: 16.7; 3: -4.6

---

Would you kindly list growth inhibition for each of these compounds?
# experiment.notes: NCI Yeast Anticancer Drug Screen. Data for the rad50 strain (AID 155);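 note: 0% = growth of vehicle-only cultures of the same strain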
# measurement.context: S. cerevisiae rad50 strain growth inhibition; at 50.0 µM; stronger effect = higher value
This is part of a sample that, as a whole, favours compounds with a hit. Of some 79,000 tested, about 15% had one in any assay.
One number for each entry, in %.

compound	data.value
Cn1c2c(c3ccccc31)CCN=C2C1CCCOC1=O (configuration not stated)	-27.6
O=C(OC1CCCC1)C1(O)CCCCC1	18.2

Dear colleague, could you send me growth inhibition for each of the items below? Thanks.
1. CN(C)C(=O)C(c1ccccc1)P(=O)(c1ccccc1)c1ccccc1 (configuration not stated)
2. CC(=O)Nc1c(C)cccc1[N+](=O)[O-]
3. CCOC(=O)C1CC(=O)NC(N)=N1 (configuration not stated)
4. O=[N+]([O-])c1cc2c(c3nonc13)OCCCCO2

stdout:
1. -7.9
2. 5.35
3. -12.6
4. 5.95

List the reported growth inhibition of each compound below.
1. COc1ccc(C(c2c(O)c3ccccc3n(C)c2=O)c2c(O)c3ccccc3n(C)c2=O)cc1
2. Cc1cc(C(=O)C[n+]2ccccc2)c(CN2C(=O)c3ccccc3C2=O)c(=O)n1C

stdout:
-39
14.8

List reported growth inhibition for each of these compounds:
1. C[N+]1(C)C2CCC1CC(OC(=O)C(O)c1ccccc1)C2 (configuration not stated)
2. CC(=O)/C(=C\c1ccc(C(F)(F)F)cc1)C(=O)CCN(C)C
3. O=C1NN(c2ccccc2)C(=O)C2C3c4ccccc4C(c4ccccc43)C12 (configuration not stated)
4. O=C(O)C1CC1Br (configuration not stated)

stdout:
1: -6.8; 2: 43.4; 3: 2.45; 4: 9.15

The reported measurements were obtained from PubChem BioAssay (NCI).
